assay: Partition coefficient, log P of the compound; type: physicochemical; conditions: octanol/water
test readout: logP

// known answers, use as guide
1. C=CCc1ccc(O)c(-c2ccc(O)c(CC(O)CO)c2)c1 (configuration not stated) : 3.08
2. C=CCc1ccc(O)c(-c2cccc(CC=C)c2O)c1 : 4.77
3. C=CCc1cc(CN2CCC(O)CC2)c(O)c(-c2cc(CC=C)c(O)c(CN3CCC(O)CC3)c2)c1 : 2.31
4. C=CCc1ccc(O)c(-c2cc(CC=C)ccc2O)c1 [MAGNOLOL] : 4.8
5. CCCc1ccc(O)c(-c2ccc3c(c2)CC(C)O3)c1 (configuration not stated) : 5.13
6. C=CCc1ccc(OC)c(-c2ccc(OC)c(CC=C)c2)c1 : 5.35
7. C=CCc1ccc(OC)c(-c2ccc(O)c(CC=C)c2)c1 : 5.28
8. C=CCc1cc(C=O)c(O)c(-c2ccc(O)c(CC=C)c2)c1 : 4.72
9. C=CCc1cc(N=O)c(O)c(-c2cc(CC=C)c(O)c(N=O)c2)c1 : 4.45
10. C=CCc1cc(-c2ccc(O)c(CC=C)c2)ccc1O : 5.21

(1) C=CCc1ccc(O)c(-c2cc(CC=C)c3oncc3c2)c1
(2) C=CCc1cc2c(c(-c3cc(CC=C)c4c(c3)NC(=O)CO4)c1)OCC(=O)N2
(3) C=CCc1cc(-c2ccc(OC)c(CC=C)c2)c(O)c(-c2ccc(OC)c(CC=C)c2)c1
Order the entries by their reported logP, beginning at the minimum. Your answer should be the labels, listed in the requested order. 2, 1, 3

----------
test: Partition coefficient, log P of the compound; assay type: physicochemical; details: octanol/water
test readout: logP

// known answers, use as guide
1) C=CCc1cc(C=O)c(OC)c(-c2ccc(O)c(CC=C)c2)c1 : 5
2) C=CCc1cc(CN2CCSCC2)c(O)c(-c2cc(CC=C)c(O)c(CN3CCSCC3)c2)c1 : 5.03
3) C=CCc1ccc(O)c(-c2ccc(O)c(CC=C)c2)c1 : 5

(A) OCC(O)Cc1ccc(O)c(-c2ccc(O)c(CC(O)CO)c2)c1 (stereo not given)
(B) C=CCc1cc(Cc2ccc(O)c(CC=C)c2)ccc1O
Which has the higher logP, A or B ? Answer with the label corresponding to your selection. B
(B: 5.38, A: 1.16)

(a) C=CCc1cc(CN(C)C)c(O)c(-c2cc(CC=C)c(O)c(CN(C)C)c2)c1
(b) C=CCc1cc(/C=N\c2ccccc2)c(O)c(-c2ccc(O)c(CC=C)c2)c1
Of the pair a and b , name the member with the lesser recorded logP. Answer with the label corresponding to your selection. a

----------
experiment: Partition coefficient, log P of the compound; assay type: physicochemical; details: octanol/water
test readout: logP

1. C=CCc1cc(-c2cccc(CC=C)c2O)ccc1OC : 5.05
2. C=CCc1ccc(O)c(-c2ccc(O)c(/C=C\C)c2)c1 : 5.1
3. C=CCc1ccc(O)c(-c2ccc3c(c2)CC(C)O3)c1 (centres undefined) : 4.65
4. C=CCc1cc(/C=C2\SC(=O)NC2=O)c(O)c(-c2cc(/C=C3\SC(=O)NC3=O)c(O)c(CC=C)c2)c1 : 3.74

----------
test: Partition coefficient, log P of the compound; type: physicochemical; conditions: octanol/water
test readout: logP

1) C=CCc1ccc(O)c(-c2cc(/C=N/O)c(O)c(CC=C)c2)c1 : 5.14
2) C=CCc1cc(NC(=O)CCl)c(O)c(-c2cc(CC=C)c(O)c(NC(=O)CCl)c2)c1 : 4.22
3) C=CCc1cccc(-c2cccc(CC=C)c2O)c1O : 4.75
4) C=CCc1cc(-c2ccc3c(c2)OCCO3)ccc1OC : 4.05
5) C=CCc1cc(CN2CCN(C)CC2)c(O)c(-c2cc(CC=C)c(O)c(CN3CCN(C)CC3)c2)c1 : 4.04
6) C=CCc1cc(NC(=O)C=C)c(O)c(-c2cc(CC=C)c(O)c(NC(=O)C=C)c2)c1 : 4.3
7) C=CCc1cc(C=O)c(OC)c(-c2ccc(OC)c(CC=C)c2)c1 : 5.07
8) C=CCc1ccc(O)c(-c2ccc(OC)c(CC=C)c2)c1 [METHYLHONOKIOL] : 5.07
9) C=CCc1ccc(O)c(-c2cc(/C=C(\C#N)C(=O)OCC)c(O)c(CC=C)c2)c1 : 5.23
10) C=CCc1ccc(O)c(-c2ccc(OCC)c(CC=C)c2)c1 : 5.45
11) C=CCc1cc(-c2ccc3c(c2)OCO3)ccc1O : 4.36
12) C=CCc1cc(C(=C(Cl)Cl)c2ccc(O)c(CC=C)c2)ccc1O : 6.17
13) C=CCc1ccc(OCC)c(-c2ccc(O)c(CC=C)c2)c1 : 5.66
